Experiment: chemical genetic growth profiling, strain panel (AID 1159580);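 also: tested at 20 µM; growth read once vehicle control cultures reached saturation at 30 °C; 1 = growth at the plate median or of vehicle wells; lower values mean less growth of the strain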
Conditions: S. cerevisiae deletion strains, growth OD, locus YLL041C, strain sdh2, active compounds read low
Hit rate of the full screen: of about 5,500 compounds, about 2,000 (36%) were called active. Roughly 18% stayed inconclusive and do not appear here. This is one part of the list.
Mark 1 (yes) only when normalized growth stays strictly below 1. Values equal to the cut-off are 0 (no).

Example entries and their recorded answers appear below.
{"Molecule": "O=C(O)CCc1nc(-c2ccccc2)c(-c2ccccc2)o1", "Group": "1 (yes)"}
{"Molecule": "C[C@H]1[C@H](C)CC[C@]2(C(=O)O)CC[C@]3(C)C(=CCC4[C@@]5(C)C[C@@H](O)[C@H](O)[C@@](C)(CO)C5[C@H](O)C[C@]43C)[C@H]12 (some centres not stated)", "Group": "1 (yes)"}

Request: Field: below-cutoff. Rule: recorded normalized growth strictly less than 1. Subject: C=CCSSCC=C
Result: 0 (no)

Request: Confirm or reject: normalized growth of CC1=CC(=O)C(C(C)C)=CC1=O lies strictly below 1
Result: 1 (yes)
